Exercise: for every item that follows, state its recorded apparent KD of MS2 coat protein.
System: MS2 coat protein
Assay: apparent KD of MS2 coat protein; designed switch direction (-1 OFF switch, 1 ON switch): -1; higher = weaker reporter binding
Details: input ligand: FMN 200 uM
Give bare numbers, in nM.

Here's what some known entries look like.
sequenceText: GAUUUGUAAGGAUAUCGUGCAAGUUUCAAAAGAGGCUUGUGCGAGAAGGUACAUGAGGAUCACCCAUGUAGGUU [Omei Ex4 B13] (Eterna round: R97, puzzle: Exclusion 4)
assayEndpoint: apparent KD of MS2 coat protein
unitTag: nM
recordedMeasurement: 42.6
//
sequenceText: AUAAAGCAAGGAUAUACAUGAGGAUCACCCAUGUAUGAAAGUUGGCCGCGGUUUAGAUGUAGAAGGUGCAAGGG [EX3 B.8] (Eterna round: R97, puzzle: Exclusion 3)
assayEndpoint: apparent KD of MS2 coat protein
unitTag: nM
recordedMeasurement: 27.6
//
sequenceText: CAGGAUAGAGGAUAUACAUAGAUACAGAUUCGUGUGAUCCUACAUGAGGAUCACCCAUGUAGAAGGCUAUCCUG [Fiskers Ex 2 - 23] (Eterna round: R96, puzzle: Exclusion 2)
assayEndpoint: apparent KD of MS2 coat protein
unitTag: nM
recordedMeasurement: 82
//
sequenceText: GUCCGGCAUGUAGGAUAUGGAUCCGAUUAGGAUUUAGAAGGACAUGAGGAUCACCCAUGUGCAUUUAAUUAGUCAUUACCGGAU [EXclNG1-LROPPY05] (Eterna round: R96, puzzle: Exclusion NG 1)
assayEndpoint: apparent KD of MS2 coat protein
unitTag: nM
recordedMeasurement: 17.4

# evaluate next
Recorded apparent KD of MS2 coat protein for CUUUUGUGAGGAUAUUAGUAGUAAAUAAAUAAAAUUACUACUUAGAAGGCACAUGAGGAUCACCCAUGUUCCUC [salish99_ex4_r3_043] (Eterna round: R96, puzzle: Exclusion 4) , please?
238

###

Tested on: MS2 coat protein
Experiment: apparent KD of MS2 coat protein, switch OFF state (with FMN for OFF switches, without FMN for ON switches); designed switch direction (-1 OFF switch, 1 ON switch): -1; higher = weaker reporter binding
Settings: FMN input: 0 or 200 uM; Eterna round: R93 (includes R88 designs)
Give apparent KD of MS2 coat protein for every item shown.

List reported apparent KD of MS2 coat protein for each of these sequences:
1. AGUCGGCGAGGAUAUACAUGAGGAUCACCCAUGUGAGAGAAAAAAGUGAGUCAGAAAAGUAGAAGGCGCUGACA [JL Lego Mod 4]
2. AAAUACCAAGGAUAUACAUGAGGAUCACCCAUGUACAAACCCGUGGAACGGAUCGUUGGUAGAAGGUGGAAAUA [Isleusso]
3. AAAAAGUGAGGAUAUUCGGAUAGGAAAACGAAAACCUAUCCGAAGAAGGCACAUGAGGAUCACCCAUGUGAAAA [67% Ecls-II - Early G + late G segment 1]
4. UCCACACAUGAGGAUCACCCAUGUGAGGAUAUCUAGAAAACCUCAUGUAAAAAAAUCUAGAGAAGGCAUAUGAA [Design 91: Pseudoknot A]
5. AGCUAGUCAGGAUAUACGAACAUGUCAGAAGACGUGAAGGGACAUGAGGAUCACCCAUGUAGAAGGGACUAGCA [74%, Web mod - With 1 more G's]
6. AAAAAACAUGAGGAUCACCCAUGUGAGGAUAUGAUGCGAAUAAAGAAAGAAGAAAGCAUCAGAAGGCACACCUA [Disincluded 3 (MS2 Riboswitches)]

1: 41.6 nM; 2: 12.2 nM; 3: 24.1 nM; 4: 18.6 nM; 5: 102 nM; 6: 59.9 nM

Lab note: each sequence below needs its apparent KD of MS2 coat protein filled in.
1. AAGAAGCAAGGAUAUACAUGAGGAUCACCCAUGUAAAAGAAAGAGAAGGGAAAGAAAAGUAGAAGGUGCGAAAA [Ruby 71]
2. AAGAAGCUAGGAUAUACUAAAGAAAUGAAAAGAAAUAAAGAACAUGAGGAUCACCCAUGUAGAAGGAGCAAGAA [Djefare]
3. AAAAGUGGAGGAUAUACAUGAGGAUCACCCAUGUGUAAAAAUAAAUACACAAAAGAAAGUAGAAGGCCACAAAA [Ex 3 May 10]
4. AAUAAGAGAGGAUAUACUAAAGAAAUGAAAAGGGAUAAAGAACAUGAGGAUCACCCAUGUAGAAGGCUCAAUAA [Khyan]

1: 23.7 nM; 2: 18.9 nM; 3: 122 nM; 4: 40.3 nM
